Molecular target: Neu5Ac(a2-3)Gal(b1-4)GlcNAc(b1-6)[Gal(b1-3)]GalNAc
Assay: glycan array binding signal (z-score within array); higher = stronger binding
Details: glycan notation: IUPAC condensed, linker removed
Shown is part of a subset that was picked to be rich in the strongest signals.
Listing: glycan array binding signal (z-score) of selected binders

BINDER	glycan array binding signal (z-score)
Si Bti9 1b-V5-his (Solanum lycopersicum) (protein) MQCNRGCDLALASFYVWRGSNLTLISEMFSTSIADIVSYNNRDNIPNQDSVIAGTRINIPFRCDCLNDGEVLGHAFPYRVKSGDTYDLVARNYSDLTTAQWMMKFNSYPENNIPNTVNLSVVVNCSCGNSDVSKDFGLFVTYPVRAEDNLTSVASAANVSEDIIRRYNPAAVSILDIGQGIIYIPGRDRNGNFPPLPTSTDGLSGGAKKGGRADPAFLYKVVINSKLEGKPIPNPLLGLDSTRTGHHHHHH	-0.108
Gal 8 (Homo sapiens) (protein) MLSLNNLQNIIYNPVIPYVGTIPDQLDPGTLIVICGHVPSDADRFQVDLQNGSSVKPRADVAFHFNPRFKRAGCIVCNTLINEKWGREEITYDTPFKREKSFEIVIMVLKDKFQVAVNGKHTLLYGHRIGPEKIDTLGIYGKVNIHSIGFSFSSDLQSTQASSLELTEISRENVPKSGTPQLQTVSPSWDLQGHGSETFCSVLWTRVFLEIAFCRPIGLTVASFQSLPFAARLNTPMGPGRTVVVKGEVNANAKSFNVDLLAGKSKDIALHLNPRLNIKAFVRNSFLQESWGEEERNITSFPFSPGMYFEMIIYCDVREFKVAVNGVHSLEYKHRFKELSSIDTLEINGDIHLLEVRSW	-0.143
Langerin CRD (Homo sapiens), Q9UJ71 (protein) QVVSQGWKYFKGNFYYFSLIPKTWYSAEQFCVSRNSHLTSVTSESEQEFLYKTAGGLIYWIGLTKAGMEGDWSWVDDTPFNKVQSVRFWIPGEPNNAGNNEHCGNIKAPSLQAWNDAPCDKTFLFICKRPYVPSEPSAWSHPQFEK	-0.693
Thrombomodulin (Mus musculus) (protein) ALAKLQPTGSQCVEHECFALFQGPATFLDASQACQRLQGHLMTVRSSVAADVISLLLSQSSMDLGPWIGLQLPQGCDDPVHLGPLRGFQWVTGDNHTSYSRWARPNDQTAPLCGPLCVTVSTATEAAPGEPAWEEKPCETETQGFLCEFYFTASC	-0.321
AAL (Aleuria aurantia), P18891 (protein) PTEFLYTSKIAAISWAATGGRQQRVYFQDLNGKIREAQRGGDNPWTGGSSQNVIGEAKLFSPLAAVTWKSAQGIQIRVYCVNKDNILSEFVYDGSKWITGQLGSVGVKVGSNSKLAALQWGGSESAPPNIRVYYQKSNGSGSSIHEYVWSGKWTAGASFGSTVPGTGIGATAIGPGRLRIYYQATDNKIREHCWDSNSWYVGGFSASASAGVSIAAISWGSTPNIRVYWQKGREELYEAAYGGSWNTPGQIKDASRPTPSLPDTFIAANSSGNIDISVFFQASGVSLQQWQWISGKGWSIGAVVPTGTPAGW	-0.444
